Biological target: T1, GST:CD+HD (UniProt Q01826 255-763)
T1 sequence: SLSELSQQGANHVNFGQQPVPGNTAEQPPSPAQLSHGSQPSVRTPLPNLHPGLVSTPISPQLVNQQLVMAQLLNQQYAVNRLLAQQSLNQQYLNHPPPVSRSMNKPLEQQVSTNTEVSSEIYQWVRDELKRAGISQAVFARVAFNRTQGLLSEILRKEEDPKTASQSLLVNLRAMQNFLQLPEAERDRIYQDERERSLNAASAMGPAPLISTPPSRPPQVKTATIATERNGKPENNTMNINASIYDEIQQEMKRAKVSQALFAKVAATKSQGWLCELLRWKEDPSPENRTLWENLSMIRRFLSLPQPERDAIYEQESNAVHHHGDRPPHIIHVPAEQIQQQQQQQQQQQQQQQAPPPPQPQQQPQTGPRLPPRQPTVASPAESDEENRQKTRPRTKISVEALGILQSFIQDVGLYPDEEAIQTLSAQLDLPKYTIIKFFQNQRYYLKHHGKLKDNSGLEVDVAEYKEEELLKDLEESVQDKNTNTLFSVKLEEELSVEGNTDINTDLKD
Assay: EMSA
Quick reference for Kd among some binders

binder | unitOfMeasure | Kd
probe 13 (IgH MAR core dimer) (dsDNA) DNA 1: AATTTCTAATATAATTTCTAATAT DNA 2: ATATTAGAAATTATATTAGAAATT | nM | 10
probe 3 (dsDNA) DNA 1: TATTAGCAATAATATTAGCAATAA DNA 2: TTATTGCTAATATTATTGCTAATA | nM | 50
probe 5 (dsDNA) DNA 1: TATTAATAATAATATTAATAATAA DNA 2: TTATTATTAATATTATTATTAATA | nM | 10
probe 10 (dsDNA) DNA 1: TATTAGTAATACTATTAGTAATAC DNA 2: GTATTACTAATAGTATTACTAATA | nM | 20
probe 9 (dsDNA) DNA 1: TATTAGTAATCATATTAGTAATCA DNA 2: TGATTACTAATATGATTACTAATA | nM | 10
